- Test system: PPARg homodimer (NR concentration 180 nM)
- Assay Explanation: PBM binding z-score (relative to random genomic background probes); higher = stronger binding; sequences stand for … in GC…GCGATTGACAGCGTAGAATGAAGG
Property Name: PBM binding z-score
A bare number is all that is needed in reply.

# example entries with known answers
Item Sequence	PBM binding z-score
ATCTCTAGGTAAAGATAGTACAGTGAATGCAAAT	1.02
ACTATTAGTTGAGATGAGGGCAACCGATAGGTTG	0.972
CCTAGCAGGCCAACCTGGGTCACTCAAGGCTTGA	0.425

Here is another sequence to look at.
For this sequence ( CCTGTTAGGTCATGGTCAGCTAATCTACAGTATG ), measured PBM binding z-score is 2.12

====

- Test system: PPARg:RXRa IVT, anti-PPARg (NR concentration 270 nM, RXRa partner concentration 90 nM)
- Assay Explanation: PBM binding z-score (relative to random genomic background probes); higher = stronger binding; sequences stand for … in GC…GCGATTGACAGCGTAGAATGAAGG
Hi, to clarify the labels: Satisfied covers PBM binding z-score from 2 upward, Not satisfied covers anything below 2.

Item Sequence	Experimental Target	Classification
CGTCCAAGGTCAGCGAGGTCAGTGAATGCCGAGT	PPARg:RXRa IVT, anti-PPARg (NR concentration 270 nM, RXRa partner concentration 90 nM)	Satisfied

Does PBM binding z-score meet or surpass 2 for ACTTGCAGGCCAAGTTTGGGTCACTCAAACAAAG ?
Not satisfied

Could you verify whether the entry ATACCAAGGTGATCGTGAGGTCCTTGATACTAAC shows PBM binding z-score of no less than 2?
Not satisfied

Exam item: decide whether the reported PBM binding z-score for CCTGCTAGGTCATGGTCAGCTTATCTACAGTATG is at least 2.
Satisfied

Tell me whether PBM binding z-score is at least 2 here: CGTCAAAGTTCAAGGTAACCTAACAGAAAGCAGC
Satisfied

Could you tell me if the measured PBM binding z-score of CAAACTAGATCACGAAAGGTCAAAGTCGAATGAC reaches 2 or more?
Satisfied

Could you verify whether the entry ATCTCTAGGTAACAAAGTTCAGTGAATGCCGAAC shows PBM binding z-score of no less than 2?
Satisfied

API: above_or_equal(metric=PBM binding z-score, cutoff=2) for item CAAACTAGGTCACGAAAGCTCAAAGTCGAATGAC
Satisfied

Confirm if PBM binding z-score reported for the sequence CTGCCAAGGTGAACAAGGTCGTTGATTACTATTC is 2 or above.
Satisfied

Is reported PBM binding z-score greater than or equal to 2 here: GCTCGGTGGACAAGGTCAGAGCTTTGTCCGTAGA
Not satisfied

Quick check: does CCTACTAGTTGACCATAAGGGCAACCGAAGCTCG have PBM binding z-score greater than or equal to 2?
Not satisfied

Could you please find out whether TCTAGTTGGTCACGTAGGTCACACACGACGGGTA has PBM binding z-score that meets 2 or exceeds it?
Satisfied

I'd appreciate it if you could say whether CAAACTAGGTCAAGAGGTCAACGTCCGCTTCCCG has PBM binding z-score at least equal to 2.
Satisfied

# check: PBM binding z-score of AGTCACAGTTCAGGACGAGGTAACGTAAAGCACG is greater than or equal to 2
Not satisfied

# bool: PBM binding z-score of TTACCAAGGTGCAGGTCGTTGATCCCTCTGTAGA >= 2
Not satisfied

Please check the record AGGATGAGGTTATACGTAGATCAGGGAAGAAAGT and state if its PBM binding z-score is at or above 2.
Not satisfied
